- ASSAYED_SYSTEM: LMW-PTP (Homo sapiens)
- Sequence (P24666 1-158): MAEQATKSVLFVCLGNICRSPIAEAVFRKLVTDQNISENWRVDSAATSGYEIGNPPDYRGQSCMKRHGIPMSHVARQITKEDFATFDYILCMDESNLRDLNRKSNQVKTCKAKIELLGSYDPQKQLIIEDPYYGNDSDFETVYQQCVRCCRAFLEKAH
- Format: biochemical
- TEST_CONDITIONS: read-out: IC50 against LMW-PTP; weak ligands, values in mM
METRIC_NAME: IC50 (mM)
Numeric only. Scale: mM

Lookup: IC50 / LMW-PTP (Homo sapiens) / NC(=O)C(c1ccccc1)S(=O)(=O)O (centres unmarked) [SPAA, SulfoPhenyl Acetic Amide]
2

----------
- ASSAYED_SYSTEM: UniProt P18031
- Sequence (P18031 whole entry, species assumed): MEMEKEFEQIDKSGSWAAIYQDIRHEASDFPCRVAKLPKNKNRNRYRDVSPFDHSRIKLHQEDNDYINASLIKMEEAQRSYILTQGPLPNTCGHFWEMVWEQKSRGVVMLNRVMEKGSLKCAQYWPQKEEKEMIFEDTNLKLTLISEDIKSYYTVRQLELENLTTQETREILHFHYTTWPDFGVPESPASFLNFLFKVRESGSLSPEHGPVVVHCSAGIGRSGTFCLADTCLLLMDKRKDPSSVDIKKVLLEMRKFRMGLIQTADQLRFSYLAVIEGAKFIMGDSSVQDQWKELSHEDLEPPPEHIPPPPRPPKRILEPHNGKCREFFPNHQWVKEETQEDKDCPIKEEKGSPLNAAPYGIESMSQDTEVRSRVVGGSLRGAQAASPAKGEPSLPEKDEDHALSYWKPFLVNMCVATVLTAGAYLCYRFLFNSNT
- ASSAY_METHOD_TEXT: PTP activity assay with pNPP, PTP1B
- Assay type: biochemical
- TEST_CONDITIONS: read-out: IC50 for PTP1B; values in mM
METRIC_NAME: IC50

Entry NC(=O)C(c1ccccc1)S(=O)(=O)O (stereo not shown) [SPAA, SulfoPhenyl Acetic Amide] , system UniProt P18031: what IC50 was measured?
> 50 mM

----------
Reported IC50 values, PTPH1 (Homo sapiens, UniProt P26045).

What measured IC50 goes with O=C(Nc1nc2ccccc2s1)C(c1ccccc1)S(=O)(=O)O (stereo not drawn) [compound 7] ?
> 200 µM

// lookup IC50 for O=C(Nc1cnc2ccccc2c1)C(c1ccccc1)S(=O)(=O)O (stereo not drawn) [compound 6]
> 200 µM

What IC50 value was documented for this compound, O=C(Nc1ccc(N2CCOCC2)cc1)C(c1ccccc1)S(=O)(=O)O (stereo not drawn) [compound 5] ?
> 200 µM

Name the reported IC50 value associated with the compound O=C(Nc1ccc2nc(C(F)(F)F)[nH]c2c1)C(c1ccccc1)S(=O)(=O)O (stereo not drawn) [compound 3]
> 200 µM

Data request, read-out IC50, for O=C(Nc1nc2ccc([N+](=O)[O-])cc2s1)C(c1ccccc1)S(=O)(=O)O (stereo not drawn) [compound 28]
> 100 µM

GET /values?readout=IC50&item= Cc1c(Br)cc(NC(=O)C(c2ccccc2)S(=O)(=O)O)cc1Br (stereo not drawn) [compound 1]
> 200 µM

Need IC50, item O=C(Nc1ccc(-n2ccnc2)cc1)C(c1ccccc1)S(=O)(=O)O (stereo not drawn) [compound 4]
> 100 µM

Could you share which IC50 value was measured for O=C(Nc1cc(C(F)(F)F)cc(C(F)(F)F)c1)C(c1ccccc1)S(=O)(=O)O (stereo not drawn) [compound 8] ?
> 200 µM

// returns reported IC50 for input O=C(Nc1ccc(OCc2ccccc2)c(Cl)c1)C(c1ccccc1)S(=O)(=O)O (stereo not drawn) [compound 2]
> 200 µM

Source of measurements: paper PMC6348062
